- target_or_system: T1, GHRH receptor in human pituitary membrane homogenates (human, UniProt Q02643)
- T1 sequence: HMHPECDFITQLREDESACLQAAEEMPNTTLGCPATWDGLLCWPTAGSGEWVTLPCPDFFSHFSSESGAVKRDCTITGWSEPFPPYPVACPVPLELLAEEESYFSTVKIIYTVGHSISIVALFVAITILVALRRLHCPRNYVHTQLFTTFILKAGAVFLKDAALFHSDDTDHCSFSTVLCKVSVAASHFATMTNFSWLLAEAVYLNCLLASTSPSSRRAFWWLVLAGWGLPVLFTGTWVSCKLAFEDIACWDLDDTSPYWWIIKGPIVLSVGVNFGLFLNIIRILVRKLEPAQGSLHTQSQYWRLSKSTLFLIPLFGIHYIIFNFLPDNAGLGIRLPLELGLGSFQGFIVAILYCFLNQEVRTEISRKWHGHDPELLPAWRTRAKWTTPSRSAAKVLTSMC
- test_protocol: ligand competition, 125I-JV-1-42 displaced, human pituitary membranes
Non-standard residues stand in square brackets, D forms with d. No end group written: not given here. *: point of attachment. Phe(F5) = N[C@@H](Cc1c(F)c(F)c(F)c(F)c1F)C(=O)O; Desaminotyrosyl = O=C(CCc1ccc(O)cc1)*; NMeY = CN[C@@H](Cc1ccc(O)cc1)C(=O)O; Agmatine = N=C(N)NCCCCN*; Nle = CCCC[C@H](N)C(=O)O; Orn = NCCC[C@H](N)C(=O)O; Abu = CC[C@H](N)C(=O)O; Ava = NCCCCC(=O)O; GABA = NCCCC(=O)O
readout_label: relative affinity (binding potency) vs JI-38 (JI-38 = 1)

// known answers, use as guide
* [NMeY]ADAIFTQSYR[Orn]VL[Abu]QLSAR[Orn]LLQDI[Nle]SRQ-{GABA-NH2} [[N-Me-Tyr1, Gln8, Orn12, Abu15, Orn21, Nle27, Gln-Gab30]hGHRH(1-30)NH2] | 3.57
* [NMeY][dA]DAI[Phe(F5)]TNSYR[Orn]VL[Abu]QLSAR[Orn]LLQDI[Nle]DR-NHMe [[N-Me-Tyr1, D-Ala2, Fpa5-6, Orn12, Abu15, Orn21, Nle27, Asp28]hGHRH(1-29)NH-CH3] | 5
* [NMeY][dA]DAIFTNSYR[Orn]VL[Abu]QLSAR[Orn]LLQDI[Nle]D[Agmatine] [[N-Me-Tyr1, D-Ala2, Orn12, Abu15, Orn21, Nle27, Asp28, Agm29]hGHRH(1-29)] | 2.56
* [Desaminotyrosyl]ADAIFTQSYR[Orn]VL[Abu]QLSAR[Orn]LLQDI[Nle]DR-NHMe (not fully specified) [[Dat1, Gln8, Orn12, Abu15, Orn21, Nle27, Asp28]hGHRH(1-29)NH-CH3] | 1.45

(I) [NMeY][dA]DAIFTQSYR[Orn]VL[Abu]QLSAR[Orn]LLQDI[Nle]D[Agmatine] [[N-Me-Tyr1, D-Ala2, Gln8, Orn12, Abu15, Orn21, Nle27, Asp28, Agm29]hGHRH(1-29)]
(II) [NMeY]ADAIFTQSYR[Orn]VL[Abu]QLSAR[Orn]LLQDI[Nle]D[Agmatine] [[N-Me-Tyr1, Gln8, Orn12, Abu15, Orn21, Nle27, Asp28, Agm29]hGHRH(1-29)]
Which record would sort first by descending relative affinity (binding potency) vs JI-38, I or II ? Field: selected label. Fill in the label of the entry you choose.
II
(II: 16.1 JI-38 = 1, I: 5.3 JI-38 = 1)

(P) [NMeY]ADAIFTQSYR[Orn]VL[Abu]QLSAR[Orn]LLQDI[Nle]SR-NHMe (not fully specified) [[N-Me-Tyr1, Gln8, Orn12, Abu15, Orn21, Nle27]hGHRH(1-29)NH-CH3]
(Q) [NMeY]ADAIFTNSYR[Orn]VL[Abu]QLSAR[Orn]LLQDI[Nle]SR[GABA]-NHMe [[N-Me-Tyr1, Orn12, Abu15, Orn21, Nle27, Gab30]hGHRH(1-30)NH-CH3]
Which entry has a larger number for relative affinity (binding potency) vs JI-38, P or Q ? Returns: label corresponding to the selected item.
P
(P: 4.03 JI-38 = 1, Q: 1.44 JI-38 = 1)

(1) [NMeY]ADAIFTQSYR[Orn]VL[Abu]QLSAR[Orn]LLQDI[Nle]DR[Ava]-NH2 [[N-Me-Tyr1, Gln8, Orn12, Abu15, Orn21, Nle27, Asp28, Apa30]hGHRH(1-30)NH2]
(2) [NMeY]ADAIFTQSYR[Orn]VL[Abu]QLSAR[Orn]LLQDI[Nle]DR-NHMe (not fully specified) [[N-Me-Tyr1, Gln8, Orn12, Abu15, Orn21, Nle27, Asp28]hGHRH(1-29)NH-CH3]
// returns 1 or 2 , whichever has the lower relative affinity (binding potency) vs JI-38 Give the label of your selection.
1
(1: 1.14 JI-38 = 1, 2: 14.5 JI-38 = 1)
